target: human A3ARs (Homo sapiens, UniProt P0DMS8); construct: expressed in transfected cells; host or cells: CHO (Chinese hamster ovary) cells; membrane preparation; assay: Competitive binding assay to the human A3 AR with [125I]I-AB-MECA; conditions: 1 h, 10 μM test compound; [125I]I-AB-MECA radioligand; CHO cell membranes expressing human A3AR; brackets = individual assays; read-out: % displacement at 10 μM (hA3AR)
Sequence (P0DMS8 whole entry): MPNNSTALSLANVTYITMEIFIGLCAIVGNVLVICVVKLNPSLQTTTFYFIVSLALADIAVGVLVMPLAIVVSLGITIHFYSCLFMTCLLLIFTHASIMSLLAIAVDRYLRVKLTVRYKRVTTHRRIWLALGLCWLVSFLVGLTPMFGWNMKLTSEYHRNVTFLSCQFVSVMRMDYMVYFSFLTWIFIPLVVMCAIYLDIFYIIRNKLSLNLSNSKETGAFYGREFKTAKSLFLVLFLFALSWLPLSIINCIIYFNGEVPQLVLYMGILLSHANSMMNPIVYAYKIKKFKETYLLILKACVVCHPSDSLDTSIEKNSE
quantity_name: inhibition at 10 µM (%)

# example entries with known answers
> print(dat)
                                   molecule                             target.system        quantity.name  assay.result
1  COc1ccc(Nc2cc(NC(=O)C3CCCC3)c3ccccc3n2)cc1  human A3ARs (Homo sapiens, UniProt P0DMS8)  inhibition at 10 µM            35
2    O=C(Nc1cc(Nc2ccccc2)nc2ccccc12)C1CCCC1  human A3ARs (Homo sapiens, UniProt P0DMS8)  inhibition at 10 µM            61
3     O=C(Nc1cc(NC2CCCC2)nc2ccccc12)C1CCCC1  human A3ARs (Homo sapiens, UniProt P0DMS8)  inhibition at 10 µM            14
4  O=C(Nc1cc(Nc2ccccc2)nc2ccccc12)c1ccccc1 [Compound 29, N-(2-anilinoquinolin-4-yl)benzamide]  human A3ARs (Homo sapiens, UniProt P0DMS8)  inhibition at 10 µM            76
5  O=C(Nc1cc(Nc2ccccc2)nc2ccccc12)c1ccco1 [Compound 31, N-(2-anilinoquinolin-4-yl)-2-furamide]  human A3ARs (Homo sapiens, UniProt P0DMS8)  inhibition at 10 µM            60
6  Cc1ccc(Nc2cc(NC(=O)C3CCCCC3)c3ccccc3n2)cc1  human A3ARs (Homo sapiens, UniProt P0DMS8)  inhibition at 10 µM            64

A: O=C(Nc1cc(Nc2ccc(Cl)c(Cl)c2)nc2ccccc12)c1ccco1
B: O=C(Nc1cc(Nc2ccc(Cl)c(Cl)c2)nc2ccccc12)C1CCC1
C: O=C(Nc1cc(Nc2ccc3cn[nH]c3c2)nc2ccccc12)C1CCCC1
D: O=C(Nc1cc(NCc2ccccc2)nc2ccccc12)C1CCCC1
**Query** Order by inhibition at 10 µM, ascending. Labels, requested order.
**Result** A, D, B, C

The reported measurements were obtained from patent US20110144156A1.
